- Study system: T1, NHERF3_4, Q5T2W1
- T1 sequence (Q5T2W1 373-468, limits assumed, looked up): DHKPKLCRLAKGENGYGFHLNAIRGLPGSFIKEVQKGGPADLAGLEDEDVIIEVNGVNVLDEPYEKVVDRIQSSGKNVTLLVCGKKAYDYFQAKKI
- Measurement description: holdup assay
- Design: key: below the threshold = too weak to quantify, mostly under pKd 3.1 to 4
- Conditions used: plain residues with an end cap or a label only (N-terminal biotin on a linker: ttds)

Binder: QRPYRRESEI [KCNJ12, Q14500]
pKd: below the threshold
//
Binder: GRLLGLETNV [ARHGEF26, Q96DR7]
pKd: below the threshold
//
Binder: SRSRRRETAL [HPV33-E6, P06427]
pKd: 3.97
//
Binder: KQVVPFSSSV [GDA, Q9Y2T3]
pKd: below the threshold
//
Binder: FVETQHQTQV [FAT3, Q8TDW7]
pKd: below the threshold
//
Binder: PPRQRSETQV [HPV82-E6, Q9IR59]
pKd: below the threshold
//
Binder: KLVIKTETTV [RASSF6, Q6ZTQ3]
pKd: below the threshold
//
Binder: GARVSKETPL [MAPK12, P53778]
pKd: 3.72
//
Binder: PSRDRKETSI [RALBP1, Q15311]
pKd: below the threshold
//
Binder: SSIDLWETAL [SLC15A5, A6NIM6]
pKd: 4.94
//
Binder: SHSSKGETAV [FZD7, O75084]
pKd: below the threshold
